src = patent US20240109924A1

Reported EC50 is given for each of the following compounds.
test: In vitro inhibition of calcium phosphate crystallization in human plasma (spectrophotometric assay)
Format: biochemical
measurement.setup: 0-100 μM, 1.5 mM phosphate, 12.5 mM calcium, pH 7.4, absorbance 550 nm, slope 6-24 min, read-out: Relative Potency

Task: Look up EC50 of COCCCCCCCCCOC1C(OP(=O)(O)O)C(OCCCCCCCCCOC)C(OP(=O)(O)O)C(OP(=O)(O)O)C1OP(=O)(O)O (stereo not drawn) and report it.
Result: > 10 µM

Task: Return EC50 for the following compound: COCCCOC1C(OP(=O)(O)O)C(OCCCOC)C(OP(=O)(O)O)C(OP(=O)(O)O)C1OP(=O)(O)O (stereo not drawn)
Result: ≤ 5 µM

Task: Indicate the recorded EC50 value for this compound: O=C(NCCCCCOC1C(OP(=O)(O)O)C(OCCCCCNC(=O)c2ccccc2)C(OP(=O)(O)O)C(OP(=O)(O)O)C1OP(=O)(O)O)c1ccccc1 (stereo not drawn)
Result: > 10 µM

====

The compounds listed here are annotated with their EC50.
test: In vitro inhibition of calcium phosphate crystallization in human plasma (spectrophotometric assay)
Type: biochemical
measurement.setup: 0-100 μM, 1.5 mM phosphate, 12.5 mM calcium, pH 7.4, absorbance 550 nm, slope 6-24 min, read-out: Relative Potency

Example compounds with recorded EC50:
Task: Determine its reported EC50: O=C(O)CCCOC1C(OP(=O)(O)O)C(OCCCC(=O)O)C(OP(=O)(O)O)C(OP(=O)(O)O)C1OP(=O)(O)O (stereo not drawn) [Compound 52]
Result: ≤ 5 µM

Task: Name the recorded EC50 of the item O=C(O)CCc1cn(CCCOC2C(OP(=O)(O)O)C(OCCCn3cc(CCC(=O)O)nn3)C(OP(=O)(O)O)C(OP(=O)(O)O)C2OP(=O)(O)O)nn1 (stereo not drawn) [Compound 35] in your answer.
Result: ≤ 5 µM

Consider the additional compound presented here.
Task: Please look at this compound and report its EC50: O=C(NCCCOC1C(OP(=O)(O)O)C(OCCCNC(=O)Nc2ccccc2)C(OP(=O)(O)O)C(OP(=O)(O)O)C1OP(=O)(O)O)Nc1ccccc1 (stereo not drawn) [Compound 46]
Result: 5 to 10 µM
